src = PubChem BioAssay (NCATS)

- measurement.protocol: Cell Viability - N2a (AID 540);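 also: cells exposed to compound for 40 h at 37 °C; plate controls were DMSO alone for no effect and tamoxifen control for full effect; nearly all actives have a fitted effect of over 45% in size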
- assay.setup: N2a mouse neuroblastoma cell viability; at 92.2 µM (top of the series)
Results filed as inconclusive are left out. The source made the active and inactive calls. Calls follow the shape of the dose curve; as a rule, active = well fitted cell-killing curve with a large enough effect; inconclusive = small, poorly fitted or top-dose-only effect; inactive = flat fitted curve, though single readings scatter.
Choose one outcome from this list and give only that: active, inactive

Examples with answers:
## Input How was `C=CC(C)=O` classified in this test?
## Output inactive

## Input For `c1ccc(OP(Oc2ccccc2)Oc2ccccc2)cc1` then?
## Output inactive

## Input For `C=CC(=C)C` then?
## Output inactive

## Input For `Clc1nc(Cl)nc(Nc2ccccc2Cl)n1` then?
## Output inactive

## Input For `CCCOC(=O)c1ccccc1C(=O)OCCC` then?
## Output inactive

Switching to the query record.
## Input How was `Clc1ccc2ccccc2c1` classified in this test?
## Output inactive

====

- measurement.protocol: Primary qHTS to identify inhibitors of SARS-CoV-2 cell entry (AID 1645846); also: nearly all actives have a fitted effect of over 45% in size
- assay.setup: SARS-CoV-2 pseudovirus cell entry assay, luminescence; at 57.1 µM (top of the series) unless noted
- Source text: Assay Provider: Wei Zheng, Ph.D. National Center for Advancing Translational Sciences, National Institute of Health, Rockville, MD. SARS-CoV-2 spike protein, within the viral envelope, mediates viral attachment and infection of host cells. The SARS-CoV-2 spike protein specifically binds to the host receptor ACE2 (Angiotensin-converting enzyme 2). […] 11. […] Read luminescence signal (Viewlux plate reader, PerkinElmer). […]
Inconclusive results are not listed. Bridge positions count the residues as written; N and C are the ends. Square brackets hold non-standard residues; d marks the D form. Peptide text beside a SMILES is read from it. * marks the point of attachment. Octanoyl(6-Me) = CCC(C)CCCCC(=O)*; Dab = NCC[CH](N)C(=O)O
measured.attribute: activity change, negative = inhibition (% [at 27.1 µM])
Answers are plain numbers, in % [at 27.1 µM].

## Input Quick one: activity change, negative = inhibition for CCC(C)CCCCC(=O)NC(CCN)C(=O)NC(C(=O)NC(CCN)C(=O)NC1CCNC(=O)C(C(C)O)NC(=O)C(CCN)NC(=O)C(CCN)NC(=O)C(CC(C)C)NC(=O)C(Cc2ccccc2)NC(=O)C(CCN)NC1=O)C(C)O (stereo not drawn) ({Octanoyl(6-Me)}-[Dab]T[Dab][Dab][Dab]FL[Dab][Dab]T; lactam 4-C; configuration not given here) ?
## Output -13.5

Now consider the entry below.
## Input Quick one: activity change, negative = inhibition for CC[C@@H](C)C[C@@H](C)CCCCCCCCC(=O)NC1C[C@@H](O)[C@@H](NCCN)NC(=O)[C@@H]2[C@@H](O)CCN2C(=O)[C@H]([C@H](O)CCN)NC(=O)[C@H]([C@H](O)[C@@H](O)c2ccc(O)cc2)NC(=O)[C@@H]2C[C@@H](O)CN2C(=O)[C@H]([C@@H](C)O)NC1=O (stereo partly drawn) ?
## Output -9.2

====

- assayed.system: Glucocorticoid receptor (Homo sapiens)
- measurement.protocol: GR-EFC Redistribution (AID 451); also: potency is read from the fitted curve at half-maximal effect
- assay.setup: CHO-K1 GR-EFC translocation, beta-gal luminescence, 2 h
- Method: NIH Molecular Libraries Screening Centers Network [MLSCN] NIH Chemical Genomics Center [NCGC] The glucocorticoid receptor (GR) is a cytoplasmic receptor that belongs to the nuclear receptor family of ligand-dependent transcription factors. […] GR-translocation was measured beta-gal enzyme activity using the PathHunter Detection Kit containing cell membrane permeablizing reagent and beta-gal substrate (DiscoveRx, Fremont, CA). […] Read plate in luminescence mode in ViewLux plate reader (PerkinElmer) […]
Active and inactive are the calls of the source. The call rests on the fitted dose curve.
measured.attribute: Potency

Some solved cases for reference:
## Input Record `CC(C)(O)/C=C\C(=O)[C@](C)(O)[C@H]1[C@H](O)C[C@]2(C)[C@@H]3CC=C4[C@@H](C=C(O)C(=O)C4(C)C)[C@]3(C)C(=O)C[C@@]12C` : what is its Potency with Glucocorticoid receptor (Homo sapiens)?
## Output > 9.22 µM (inactive)

## Input For `C[C@@H]1NCCc2cc(O)c(O)cc21` then?
## Output > 20.6 µM (inactive)

## Input For `N#Cc1ccc(CN2CC3(CCNCC3)C2)cc1` then?
## Output > 46 µM (inactive)

## Input For `CN1CCC2(CC1)CCN(C(=O)c1ccco1)CC2` then?
## Output > 46 µM (inactive)

## Input For `CN1C[C@H](CO)C=C2c3cccc4[nH]cc(c34)C[C@@H]21` then?
## Output > 20.6 µM (inactive)

Look at each compound and report its Potency.
1. N#Cc1ccc(CN2CCCC3(CCN(C(=O)Oc4ccccc4)CC3)C2)cc1
2. CC[C@]1(c2cccc(O)c2)CCCCN(C)C1

## Output
1. > 46 µM (inactive)
2. > 20.6 µM (inactive)
